System: U251 human glioblastoma cell line
Assay: in vitro FM-HCR assay of MGMT activity (mPlum O^6MeG reporter plasmid)
Assay type: cell-based
Conditions: 0.1% DMSO; U251 cells; flow cytometry 24 h after transfection; damaged/undamaged reporter; inversely related to MGMT activity
recorded-endpoint: Reporter expression (%) mean, DMSO
Response body: numeric value in %, unit text excluded.

1) L33Y: MGMT polypeptide with mutation L33Y (protein) MDKDCEMKRTTLDSPLGKLELSGCEQGLHEIKYLGKGTSAADAVEVPAPAAVLGGPEPLMQCTAWLNAYFHQPEAIEEFPVPALHHPVFQQESFTRQVLWKLLKVVKFGEVISYQQLAALAGNPKAARAVGGAMRGNPVPILIPCHRVVCSSGAVGNYSGGLAVKEWLLAHEGHRLGKPGLGGSSGLAGAWLKGAGATSGSPPAGRN | 17.0

Attention now turns to another entry.
Lab note: measured Reporter expression (%) mean, DMSO of G156P: MGMT polypeptide with mutation G156P (protein) MDKDCEMKRTTLDSPLGKLELSGCEQGLHEIKLLGKGTSAADAVEVPAPAAVLGGPEPLMQCTAWLNAYFHQPEAIEEFPVPALHHPVFQQESFTRQVLWKLLKVVKFGEVISYQQLAALAGNPKAARAVGGAMRGNPVPILIPCHRVVCSSGAVPNYSGGLAVKEWLLAHEGHRLGKPGLGGSSGLAGAWLKGAGATSGSPPAGRN was 41.0
